- system.tested: monkey CADM3 (cynomolgus monkey)
- Sequence (Q8N126 25-398 S206N limits assumed, form in doubt): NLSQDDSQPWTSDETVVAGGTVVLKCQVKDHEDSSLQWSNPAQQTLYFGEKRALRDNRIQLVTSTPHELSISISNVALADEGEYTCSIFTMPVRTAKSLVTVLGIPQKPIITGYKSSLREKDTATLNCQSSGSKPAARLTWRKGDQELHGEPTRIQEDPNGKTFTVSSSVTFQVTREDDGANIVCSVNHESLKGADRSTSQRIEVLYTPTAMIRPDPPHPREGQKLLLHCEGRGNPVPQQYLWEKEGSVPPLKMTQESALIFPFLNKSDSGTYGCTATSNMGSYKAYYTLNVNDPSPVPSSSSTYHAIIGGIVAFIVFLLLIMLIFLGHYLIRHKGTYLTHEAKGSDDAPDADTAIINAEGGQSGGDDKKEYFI
- experimental.details: flow cytometry, 10 ug/mL, monkey CADM3/Expi293F vs parent Expi293F cells
measurement.label: Mean fluorescence intensity ratio
Respond numerically, and do not add a unit to the figure.

INSERT INTO assay_data (binder, quantitative_readout) VALUES
  ('iCADM3_3R1-L10 VHH-hG4PE(R409K) (Fc fusion, not shown: a dimerising Fc or GST) QVQLVESGGGLVQAGGSLRLSCAASGSIFSIHAMGWYRQAPGKQRELVATVTSGGSTNYADSVKGRFTISRDNAKNTVYLQMNSLKPEDTAVYYCNAETPYYSSTYYTNYWGQGTQVTVSS', 36.5),
  ('CADM301 scFv-hG4PE (Fc fusion) VH: QVQLVQSGAEVRRPGTSVKVSCKASGYSFTSYDINWVRLATGQGLEWMGWMNPNTGDTGSPQKFQDRVTMTRDISTGTAYLELRGLKSEDTAIYYCARGFLVTAYTAEFFPHWGQGTLVTVSS VL: SYVLTQPPSVSVAPGKTARLTCGGNNIGSKSVHWYQQRPGQAPVLVINYDSDRPSGIPERFSGSNSENTATLTISRVEAGDEADYYCQVWDSGSDHVVFGGGTQLIIL', 5.72),
  ('iCADM3_3R1-L5 VHH-hG4PE(R409K) (Fc fusion, not shown: a dimerising Fc or GST) QVQLVESGGGLVQAGGSLRLSCAASGSIVSVNAMGWYRQAPGKQRELVATITSGGSTNYADSAKGRFTISRDNAKNTMYLQMNSLKPEDTAVYYCNGEFWSRRDTRPPGVVNYWGQGTQVTVSS', 26.6);

Item: iCADM3_3R1-L11 VHH-hG4PE(R409K) (Fc fusion, not shown: a dimerising Fc or GST) QVQLVESGGGLVQAGGSLRLSCAASGSIFSFNAMGWYRQAPGKQRGLVAVITSGGYTNYADSVKGRFTITRDNAKNTVYLQMNSLKPEDTAVYYCNAEGVYSDYVIMNYWGQGTQVTVSS | Mean fluorescence intensity ratio: 35.3

Source of measurements: patent US20210147541A1
